- target or test system: hEP2/Gqs5 (Homo sapiens, UniProt P43116)
- Construct: expressed in transfected cells; host or cells: HEK-293(EBNA)
- Sequence (P43116 whole entry): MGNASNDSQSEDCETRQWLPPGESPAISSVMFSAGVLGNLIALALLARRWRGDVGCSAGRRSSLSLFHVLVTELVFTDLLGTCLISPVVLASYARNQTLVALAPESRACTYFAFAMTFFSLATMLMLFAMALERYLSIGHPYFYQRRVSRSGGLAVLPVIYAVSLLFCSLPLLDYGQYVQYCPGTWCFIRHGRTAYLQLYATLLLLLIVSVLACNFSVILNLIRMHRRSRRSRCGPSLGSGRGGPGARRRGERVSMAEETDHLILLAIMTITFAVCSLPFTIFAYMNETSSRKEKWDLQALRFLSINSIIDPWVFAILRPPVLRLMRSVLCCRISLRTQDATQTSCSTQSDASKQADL
- procedure summary: FLIPR calcium signal, hEP2
- Format: cell-based
- condition context: FLIPR Ca2+ signal, HEK-293(EBNA); read-out: FUNCTIONAL EC50 HEP2
EC50 listing for selected compounds.

{"compound": "COC(=O)CCC/C=C\\C[C@@H]1[C@@H](c2ccc(CO)cc2)[C@H](O)C[C@H]1Cl", "target or test system": "hEP2/Gqs5 (Homo sapiens, UniProt P43116)", "EC50": "> 10 µM"}
{"compound": "CCCC1(C(O)c2ccc([C@H]3[C@H](O)CC(=O)[C@@H]3C/C=C\\CCCC(=O)O)cc2)CCC1 (stereo partly drawn)", "target or test system": "hEP2/Gqs5 (Homo sapiens, UniProt P43116)", "EC50": "3.72 µM"}
{"compound": "COC(=O)CCCCCC[C@H]1C(=O)C[C@@H](O)[C@@H]1c1ccc(C(O)C2CCCCC2)cc1 (stereo partly drawn)", "target or test system": "hEP2/Gqs5 (Homo sapiens, UniProt P43116)", "EC50": "> 10 µM"}
{"compound": "COC(=O)CCC/C=C\\C[C@H]1C(=O)C[C@@H](O)[C@@H]1c1ccc(C(O)C2CCCCC2)cc1 (stereo partly drawn)", "target or test system": "hEP2/Gqs5 (Homo sapiens, UniProt P43116)", "EC50": "> 10 µM"}
{"compound": "CC(C)C(O)c1ccc([C@@H]2[C@@H](C/C=C\\CCCC(=O)O)[C@H](Cl)C[C@H]2O)cc1 (stereo partly drawn)", "target or test system": "hEP2/Gqs5 (Homo sapiens, UniProt P43116)", "EC50": "0.497 µM"}
{"compound": "O=C(O)CCCCCC[C@@H]1[C@@H](c2ccc(CO)cc2)[C@H](O)C[C@H]1Cl", "target or test system": "hEP2/Gqs5 (Homo sapiens, UniProt P43116)", "EC50": "> 10 µM"}
